Form field: GI50 (one value per entry).
system: DU-145; assay: NCI tumour cell line growth inhibition, 48 h
Active and inactive are the calls of the source. Cut-off read from the data, not from the text of the source: active = GI50 up to about 1.1 µM and inactive = higher.

Query GI50 for O=S1(=O)c2ccccc2-c2nccc3ccnc1c23 11.3 µM (inactive)

Query GI50 for C=C1C(=O)OC2/C=C(CO)/C=C\C3OC3(C)CC(OC(=O)/C(C)=C/COC(C)=O)C12 (centres undefined) 16.6 µM (inactive)

Query GI50 for CN(Cc1cc(Cl)cc(Cl)c1)CC(C(=O)c1ccccc1)c1ccccc1 (centres undefined) 4.69 µM (inactive)

Query GI50 for FC(F)(F)c1cccc(COCCN2CCN(Cc3cccc(C(F)(F)F)c3)CC2)c1 17 µM (inactive)

----------
system: KM12; experiment: NCI tumour cell line growth inhibition, 48 h
Activity calls are given as the source filed them. No stated cut-off is given here; in the data, active = GI50 up to about 1.1 µM and inactive = higher.
Form field: GI50 (one value per entry).

Consider the reported GI50 for these compounds:
>>> experimental_result("COc1cc(/C=C2\\N=C(c3ccccc3)N(c3nc4c(OC)ccc(OC)c4s3)C2=O)cc(OC)c1OC")
"61.8 µM (inactive)"
>>> experimental_result("O=C(O)c1ccc(Nc2nc3ccc(C(F)(F)F)cc3nc2C(=O)O)cc1")
"> 100 µM (inactive)"
>>> experimental_result("COc1ccc2c3c([nH]c2c1[N+](=O)[O-])C(C)N(Cc1ccccc1)CC3 (stereo unspecified)")
"3.59 µM (inactive)"

Query GI50 for O=S1OC[C@H](CCCl)O1 (stereo partly specified) 13.8 µM (inactive)

Query GI50 for COc1ccc2c(c1)c1nn(CCN3CCCCC3)c3ccc4c(=O)n(CCN(C)C)c(=O)n2c4c13 < 0.01 µM (active)

Query GI50 for Cn1c(=O)c2nc(N3CCCCC3)cnc2n(C)c1=O > 100 µM (inactive)

Query GI50 for CC(=O)n1[nH]c(=O)n(-c2ccc(Cl)cc2)c1=O > 100 µM (inactive)

Query GI50 for COc1cccc(C23CCCC(C2)N(C)CC3OC(=O)c2ccccc2)c1OC (stereo unspecified) 22.9 µM (inactive)

Query GI50 for O=c1c2ccccc2c2c3c1cccc3c1cccc3c(=O)c4ccccc4c2c31 > 100 µM (inactive)

Query GI50 for Nc1nc(S)c2c(N)n[nH]c2c1C(=O)Nc1ccc(Cl)cc1 21.4 µM (inactive)

Query GI50 for O=c1[nH]c(=O)n([C@@H]2O[C@H](CO)[C@@H](O)[C@@H]2F)cc1I > 100 µM (inactive)

Query GI50 for Cn1c(C2CC(C)(C)c3c2c2ccccc2n3C)cc2ccccc21 (stereo unspecified) > 304 µM (inactive)

Query GI50 for Clc1ccc(CN2CCCN(Cc3ccc(Cl)cc3)C2c2cc3ccccc3c3ccccc23)cc1 60.3 µM (inactive)

Query GI50 for COc1ccc(/C=C/[N+](=O)[O-])cc1 3.18 µM (inactive)

Query GI50 for O=C(Nc1cccc2ccccc12)Oc1ccccc1C1CCCCC1 20.2 µM (inactive)

Query GI50 for O=C1c2ccccc2C(C2c3ccccc3C(=O)c3cc(Br)ccc32)c2ccc(Br)cc21 (stereo unspecified) > 100 µM (inactive)

----------
test system: RXF 631; assay: NCI tumour cell line growth inhibition, 48 h
Calls of active or inactive are those of the source. Rule as the data show it: active = GI50 up to about 1.1 µM and inactive = higher.
Respond using exactly one of the listed classes: active, inactive

>>> category_label("O=C1C2=C(c3ccccc31)C(c1ccccc1Cl)N1C(=O)CSC1=N2 (centres undefined)")
"inactive"

Which outcome was entered for the compound COC1/C=C\C=C(/C)C(=O)NC2=CC(=O)C(N)=C(CC(C)CC(OC)C(O)C(C)C=C(C)C1OC(N)=O)C2=O (centres undefined) in this test? active

Which outcome was entered for the compound C=C1C(=O)OC2CCCCC3OC3C12 (centres undefined) in this test? inactive

Which outcome was entered for the compound COc1cc(Oc2c(O)c(C)c(OC)c(C(C)=O)c2O)c(C(C)=O)c(O)c1C in this test? inactive

----------
system: Malme-3M; assay: NCI tumour cell line growth inhibition, 48 h
Calls of active or inactive are those of the source. Cut-off read from the data, not from the text of the source: active = GI50 up to about 1.1 µM and inactive = higher.
Respond using exactly one of the listed classes: YES for active, NO for inactive

Illustrative cases are given below, each with its answer.
>>> category_label("O=C1C2=Nc3ccccc3C(O)N2c2ccccc21 (centres undefined)")
"NO"
>>> category_label("COc1ccc(N2C(=O)c3cccnc3S2(=O)=O)cc1")
"NO"
>>> category_label("CCOC(=O)CCC(NC(=O)c1ccc(Oc2nc3ccccc3nc2-c2ccccc2)cc1)C(=O)OCC (centres undefined)")
"NO"
>>> category_label("CC1=C(C#N)C2C(=C(C)N1)C(N)=Nc1ccccc12 (centres undefined)")
"NO"
>>> category_label("COc1cccc(C23CCCC(C2)N(C)CC3OC(=O)c2ccccc2)c1OC (centres undefined)")
"NO"
>>> category_label("Cc1ccc(SC2=C(N(C)C)C(=O)c3ccccc3C2=O)cc1")
"NO"

Which outcome was entered for the compound CCCCC(=O)OC[n+]1ccc(-c2c(COC(=O)NC(C)C)c(COC(=O)NC(C)C)c3n2CCC3)cc1 in this test? NO

Which outcome was entered for the compound O=C(NC1CCCCC1)c1c(O)[nH]c(=S)[nH]c1=O in this test? NO

Which outcome was entered for the compound N#CC(C#N)[C@@H]1CCC=C(Sc2ccccc2)[C@H]1Sc1ccccc1 in this test? NO

Which outcome was entered for the compound O=c1c2ccccc2nc(N/N=C/c2ccccc2O)n1-c1ccccc1 in this test? NO

Which outcome was entered for the compound O=c1cc(NNc2ccccc2F)[nH]c(=O)[nH]1 in this test? NO

Which outcome was entered for the compound CC(C)CC(NP(=O)(O)OC1OC(C)C(O)C(O)C1O)C(=O)NC(Cc1c[nH]c2ccccc12)C(=O)O (centres undefined) in this test? NO

----------
test system: 786-0; assay: NCI tumour cell line growth inhibition, 48 h
Calls of active or inactive are those of the source. Cut-off read from the data, not from the text of the source: active = GI50 up to about 1.1 µM and inactive = higher.
Form field: GI50 (one value per entry).

Consider the reported GI50 for these compounds:
>>> experimental_result("CO/N=C(\\C)c1ccc(Nc2c3ccccc3nc3occc23)cc1")
"0.74 µM (active)"
>>> experimental_result("C[C@H]1S[C@H](c2c(Cl)cccc2Cl)N2Cc3ccccc3N=C12")
"8.49 µM (inactive)"
>>> experimental_result("O=C(C(=O)c1cc(-c2ccccc2)nc2ccc3ccccc3c12)c1ccccc1")
"33.5 µM (inactive)"
>>> experimental_result("C/C(=C\\CSCC(N)C(=O)O)CC/C=C(\\C)CNc1ccccc1 (stereo not drawn)")
"> 100 µM (inactive)"
>>> experimental_result("O=C(O)c1ccc(Nc2nc3ccc(C(F)(F)F)cc3nc2C(=O)O)cc1")
"> 100 µM (inactive)"

Query GI50 for COC(=O)[C@@]12CN(C)[C@@H](C(C)(C)C)N1C(=O)OC2c1ccccc1 (stereo partly drawn) > 100 µM (inactive)

Query GI50 for O=c1[nH]c(=O)n([C@@H]2O[C@H](CO)[C@@H](O)[C@@H]2F)cc1I > 100 µM (inactive)

Query GI50 for C/C=C1\NC(=O)[C@H](Cc2ccccc2)NC(=O)[C@@H](C(C)C)NC(=O)[C@@H]([C@@H](C)CC)NC(=O)[C@H](NC(=O)[C@H](NC(=O)[C@H](CCCN)NC(=O)[C@H]2CCCN2C(=O)[C@H](NC(=O)[C@@H](NC(=O)[C@@H](NC(=O)[C@H](NC(=O)CCCC(C)C)C(C)C)[C@@H](C)O)C(C)C)C(C)C)[C@@H](C)CC)[C@@H](C)OC(=O)[C@H](C(C)C)NC1=O 1.74 µM (inactive)

Query GI50 for Cc1cccc(Cl)c1NC(=O)/C=C/c1ccccc1 36.3 µM (inactive)

Query GI50 for O=C(NC1CCCCC1)c1c(O)[nH]c(=S)[nH]c1=O > 100 µM (inactive)

----------
tested on: M14; test: NCI tumour cell line growth inhibition, 48 h
Calls of active or inactive are those of the source. No stated cut-off is given here; in the data, active = GI50 up to about 1.1 µM and inactive = higher.
Form field: GI50 (one value per entry).

Consider the reported GI50 for these molecules:
>>> experimental_result("COc1cc(Oc2c(O)c(C)c(OC)c(C(C)=O)c2O)c(C(C)=O)c(O)c1C")
"64.3 µM (inactive)"
>>> experimental_result("CC1=NNC(=O)C1C1CC(c2c[nH]c3ccccc23)=NN(C(N)=O)C1=O (stereo not drawn)")
"> 100 µM (inactive)"
>>> experimental_result("Cc1ccccc1C(=O)N1CCN(C(=O)c2ccccc2C)CC1")
"> 100 µM (inactive)"

Query GI50 for c1ccc(C2SCc3nc4ccccc4n32)cc1 (stereo not drawn) 84.5 µM (inactive)

Query GI50 for O=P(c1ccccc1)(c1ccccc1)N1O[C@@H](c2ccccc2)C=C[C@H]1c1ccccc1 10.9 µM (inactive)

Query GI50 for O=C(O)c1nc2ccccc2nc1Nc1ccc(F)cc1 25.5 µM (inactive)

----------
system: HCT-15
Form field: GI50 (one value per entry).
# value in µM; strip the unit string

>>> experimental_result("O=[N+]([O-])c1cn[n+]([O-])c2ccccc12")
2.06
>>> experimental_result("CC1=NN(C(=O)CSc2nnc(SCC(=O)N3N=C(C)CC3(O)c3ccccc3)s2)C(O)(c2ccccc2)C1 (stereo not given)")
33.2
>>> experimental_result("CCN(CC)P1(=S)Oc2ccc3ccccc3c2-c2c(ccc3ccccc23)O1")
63.4
>>> experimental_result("COc1cccc(C23CCCC(C2)N(C)CC3OC(=O)c2ccccc2)c1OC (stereo not given)")
22.5
>>> experimental_result("O=Cc1cn(S(=O)(=O)c2ccccc2)c2ccccc12")
35.2

Query GI50 for O=c1cc(CO)n(CCc2c[nH]c3ccccc23)cc1O 51.2

Query GI50 for O=C(/C=C/c1ccccc1Br)c1ccccc1 2.11

Query GI50 for O=C(CC/C(CC(=O)c1ccc(Cl)cc1)=N/O)Nc1ccc(Cl)c(Cl)c1 48.1

Query GI50 for CC(=O)O[C@@H]1C[C@]2(C(=O)c3ccccc3)C(=O)C(=O)S[C@]12c1ccccc1 32.9

Query GI50 for S=C(N/N=C\C=N/NC(=S)N1CCCCCC1)N1CCCCCC1 8.02
